These measurements were taken from patent US5484780A.

Target: angiotensin II receptor (adrenal membranes)
Experiment: Adrenal Glomerulosa Test System: binding of I^125-angiotensin II to adrenal membranes
Conditions: displacement of 0.1 nM I^125-angiotensin II, rat adrenal membranes, 90 minutes, room temperature; KI by Cheng Prusoff equation; read-out: Adrenal Glomulosa (KI)
Description: As previously discussed, the compounds of Formula I are potent effective antagonists of angiotensin II. The ability of representative compounds of Formula I to block angiotensin II receptor binding was determined using the adrenal glomerulosa assay. The ability to antagonize angiotensin-induced vasoconstriction was evaluated in the rabbit aorta test system. […] Binding was terminated by vacuum filtration. […] Filter discs were dried, punched out and counted in a gamma counter at 52% efficiency. […]
result type: Ki (µM)

compound	recorded value
CCCCCCC(C(=O)NCCC)n1cnc(NC(=O)c2ccccc2S(=O)(=O)O)c1 (stereo not drawn)	8.2
CCCCCCC(C(=O)Nc1ccccn1)n1cnc(NC(=O)c2ccccc2S(=O)(=O)O)c1 (stereo not drawn)	6.8
CCCCCCC(C(=O)N1CCNC1=O)n1cnc(NC(=O)c2ccccc2S(=O)(=O)O)c1 (stereo not drawn)	178
CCCCCCC(C(=O)NCC(F)(F)F)n1cnc(NC(=O)c2ccccc2S(=O)(=O)O)c1 (stereo not drawn)	9.6
CCCCCCC(C(=O)Nc1ccccc1C(=O)O)n1cnc(NC(=O)c2ccccc2S(=O)(=O)O)c1 (stereo not drawn)	12.4
CCCCCCC(C(=O)Nc1ccccc1O)n1cnc(NC(=O)c2ccccc2S(=O)(=O)O)c1 (stereo not drawn)	13
CCCCCCC(C(=O)NCC)n1cnc(NC(=O)c2ccccc2S(=O)(=O)O)c1 (stereo not drawn)	10.3
CCCCCCC(C(=O)O)n1cnc(NC(=O)c2cccc(O)c2S(=O)(=O)O)c1 (stereo not drawn)	2.93
CCCCCCC(C(=O)NC(C)(C)CO)n1cnc(NC(=O)c2ccccc2S(=O)(=O)O)c1 (stereo not drawn)	12.1

----------
Biological target: angiotensin-induced vasoconstriction (rabbit aorta) (Oryctolagus cuniculus)
Construct: The thoracic aortas were removed and cleaned of excess fat and connective tissue; from tissue; host or cells: thoracic aorta rings of New Zealand white rabbits (animals from Hazelton)
Sequence (P34976 1-359): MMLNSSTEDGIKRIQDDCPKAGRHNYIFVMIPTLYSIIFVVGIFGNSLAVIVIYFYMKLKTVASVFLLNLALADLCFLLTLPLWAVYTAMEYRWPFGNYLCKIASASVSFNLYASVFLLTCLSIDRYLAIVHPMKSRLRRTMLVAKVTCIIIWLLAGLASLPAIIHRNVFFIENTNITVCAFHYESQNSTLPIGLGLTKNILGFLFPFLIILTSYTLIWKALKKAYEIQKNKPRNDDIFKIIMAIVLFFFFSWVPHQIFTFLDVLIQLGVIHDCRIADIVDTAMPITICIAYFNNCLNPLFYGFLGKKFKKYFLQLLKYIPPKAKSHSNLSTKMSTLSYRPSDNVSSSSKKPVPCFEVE
Experiment: Rabbit Aorta Test System: antagonism of angiotensin II contraction of aortic rings
Set-up: species or system New Zealand white rabbits
Settings: contraction to AII 10^-10 to 10^-7 M, 30 minutes incubation with compound; pA2 = -log KB
result type: Kb (nM)

compound	target or system	result type	recorded value
CCCCCC[C@H](C(=O)N1C[C@@H](Oc2ccc(CO)cc2)C[C@H]1C(=O)O)n1cnc(NC(=O)c2ccccc2S(=O)(=O)O)c1 [Example 35]	angiotensin-induced vasoconstriction (rabbit aorta) (Oryctolagus cuniculus)	Kb	2
CCCCCCC(C(=O)Nc1ccccc1C(=O)O)n1cnc(NC(=O)c2ccccc2S(=O)(=O)O)c1 (stereo not drawn) [Example 9]	angiotensin-induced vasoconstriction (rabbit aorta) (Oryctolagus cuniculus)	Kb	251
CCCCCC[C@H](C(=O)N1C[C@@H](Oc2ccc3ccccc3c2)C[C@H]1C(=O)O)n1cnc(NC(=O)c2ccccc2S(=O)(=O)O)c1 [Example 61]	angiotensin-induced vasoconstriction (rabbit aorta) (Oryctolagus cuniculus)	Kb	3.16

----------
Target: angiotensin-induced vasoconstriction (rabbit aorta) (Oryctolagus cuniculus, UniProt P34976)
Construct: The thoracic aortas were removed and cleaned of excess fat and connective tissue; from tissue; host or cells: thoracic aorta rings of New Zealand white rabbits (animals from Hazelton)
Assay: Rabbit Aorta Test System: antagonism of angiotensin II contraction of aortic rings
Parameters: species or system New Zealand white rabbits
Conditions: contraction to AII 10^-10 to 10^-7 M, 30 minutes incubation with compound; pA2 = -log KB
Method: As previously discussed, the compounds of Formula I are potent effective antagonists of angiotensin II. The ability of representative compounds of Formula I to block angiotensin II receptor binding was determined using the adrenal glomerulosa assay. The ability to antagonize angiotensin-induced vasoconstriction was evaluated in the rabbit aorta test system. New Zealand white rabbits (Hazelton, 2-3 kg) were sacrificed by cervical dislocation. […]
Recorded Rabbit Aorta (pA2) by entry
result type: Rabbit Aorta (pA2)

compound	recorded value
CCCCCCC(C(=O)N1CCNC1=S)n1cnc(NC(=O)c2ccccc2S(=O)(=O)O)c1 (stereo not shown) [Example 6]	6.3
CCCCCCC(C(=O)N1C[C@@H](Oc2ccc(CP(=O)(O)O)cc2)C[C@H]1C(=O)O)n1cnc(NC(=O)c2ccccc2S(=O)(=O)O)c1 (stereo partly shown) [Example 91]	10.1
CCCCCC[C@H](C(=O)N1C[C@@H](Oc2ccc(NS(=O)(=O)C(F)(F)F)cc2)C[C@H]1C(=O)O)n1cnc(NC(=O)c2ccccc2S(=O)(=O)O)c1 [Example 93]	8.9
CCCCCC[C@H](C(=O)N1C[C@@H](Oc2ccc(OCC)cc2)C[C@H]1C(=O)O)n1cnc(NC(=O)c2cccc(O)c2C(=O)O)c1 [Example 83]	8.9
CCCCCC[C@H](C(=O)N1C[C@@H](Oc2ccc(F)cc2)C[C@H]1C(=O)O)n1cnc(NC(=O)c2ccccc2S(=O)(=O)O)c1 [Example 28]	8.7
CCCCCC[C@H](C(=O)N1C[C@@H](Oc2ccc([S+](C)[O-])cc2)C[C@H]1C(=O)O)n1cnc(NC(=O)c2ccccc2S(=O)(=O)O)c1 (stereo partly shown) [Example 31]	8.9
CCCCCC[C@H](C(=O)N1C[C@@H](Oc2ccc(C(F)(F)F)cc2)C[C@H]1C(=O)O)n1cnc(NC(=O)c2ccccc2S(=O)(=O)O)c1 [Example 29]	7.5

----------
Recorded Kb by entry
Biological target: angiotensin-induced vasoconstriction (rabbit aorta) (Oryctolagus cuniculus)
Construct: The thoracic aortas were removed and cleaned of excess fat and connective tissue; from tissue; host or cells: thoracic aorta rings of New Zealand white rabbits (animals from Hazelton)
Test: Rabbit Aorta Test System: antagonism of angiotensin II contraction of aortic rings
Design: species or system New Zealand white rabbits
Settings: contraction to AII 10^-10 to 10^-7 M, 30 minutes incubation with compound; pA2 = -log KB
result type: Kb (nM)

compound	recorded value
CCCCCC[C@H](C(=O)N1C[C@@H](Oc2ccon2)C[C@H]1C(=O)O)n1cnc(NC(=O)c2ccccc2S(=O)(=O)O)c1	100
CCCCCC[C@H](C(=O)N1C[C@@H](Oc2ccc(OCC(=O)O)cc2)C[C@H]1C(=O)O)n1cnc(NC(=O)c2ccccc2S(=O)(=O)O)c1	0.316
CCCCCC[C@H](C(=O)N1C[C@@H](Oc2ccc(-c3nc(C(=O)O)co3)cc2)C[C@H]1C(=O)O)n1cnc(NC(=O)c2ccccc2S(=O)(=O)O)c1	0.158
CCCCCC[C@H](C(=O)N1C[C@@H](Oc2ccc(CC(=O)O)cc2)C[C@H]1C(=O)O)n1cnc(NC(=O)c2ccccc2-c2nn[nH]n2)c1	1.58
CCCCCCC(C(=O)N1C[C@@H](Oc2ccc(OC)cc2)C[C@H]1C(=O)O)n1cnc(NC(=O)c2ccccc2S(=O)(=O)O)c1 (single isomer, unassigned)	0.2
CCCCCCC(C(=O)NCC)n1cnc(NC(=O)c2ccccc2S(=O)(=O)O)c1 (stereo not drawn)	2000

----------
Target: angiotensin-induced vasoconstriction (rabbit aorta) (Oryctolagus cuniculus, UniProt P34976)
Construct: The thoracic aortas were removed and cleaned of excess fat and connective tissue; from tissue; host or cells: thoracic aorta rings of New Zealand white rabbits (animals from Hazelton)
Assay: Rabbit Aorta Test System: antagonism of angiotensin II contraction of aortic rings
Design: species or system New Zealand white rabbits
Details: contraction to AII 10^-10 to 10^-7 M, 30 minutes incubation with compound; pA2 = -log KB
Recorded Kb by entry

compound	Kb / nM
CCCCCC[C@H](C(=O)N1C[C@@H](Oc2ccc3sccc3c2)C[C@H]1C(=O)O)n1cnc(NC(=O)c2ccccc2S(=O)(=O)O)c1 [Example 72]	3.16
CCCCCC[C@H](C(=O)N1C[C@@H](Oc2ccc(CC(=O)O)cc2)C[C@H]1C(=O)O)n1cnc(NC(=O)c2cccc(O)c2C(=O)O)c1 [Example 86]	0.794
CCCCCC[C@H](C(=O)N1C[C@@H](Oc2ccc(OC(C)(C)C)cc2)C[C@H]1C(=O)O)n1cnc(NC(=O)c2ccccc2S(=O)(=O)O)c1 [Example 52]	3.98
CCCCCC[C@H](C(=O)N1C[C@@H](Oc2ccc3c(c2)OCO3)C[C@H]1C(=O)O)n1cnc(NC(=O)c2ccccc2S(=O)(=O)O)c1 [Example 59]	0.631
CCCCCC[C@H](C(=O)N1C[C@@H](Oc2ccc3oc4ccccc4c3c2)C[C@H]1C(=O)O)n1cnc(NC(=O)c2ccccc2S(=O)(=O)O)c1 [Example 71]	25.1
CCCCCCC(C(=O)Nc1ccccn1)n1cnc(NC(=O)c2ccccc2S(=O)(=O)O)c1 (stereo not shown) [Example 7]	1580
CCCCCCC(C(=O)NC(C)(C)CO)n1cnc(NC(=O)c2ccccc2S(=O)(=O)O)c1 (stereo not shown) [Example 4]	1000
CCCCCC[C@H](C(=O)N1C[C@@H](Oc2ccc(OCC)cc2)C[C@H]1C(=O)O)n1cnc(NC(=O)c2ccccc2S(=O)(=O)O)c1 [Example 48]	0.631
CCCCCC[C@H](C(=O)N1C[C@@H](Oc2ccc(CCC(=O)O)cc2)C[C@H]1C(=O)O)n1cnc(NC(=O)c2ccccc2S(=O)(=O)O)c1 [Example 37]	0.398
CCCCCC[C@H](C(=O)N1C[C@@H](Oc2ccc(S(=O)(=O)N3CCCC3)cc2)C[C@H]1C(=O)O)n1cnc(NC(=O)c2ccccc2S(=O)(=O)O)c1 [Example 39]	1
CCCCCC[C@H](C(=O)N1C[C@@H](Oc2ccc(C)cc2)C[C@H]1C(=O)O)n1cnc(NC(=O)c2ccccc2S(=O)(=O)O)c1 [Example 22]	0.398
CCCCCCC(C(=O)O)n1cnc(NC(=O)c2cccc(O)c2S(=O)(=O)O)c1 (stereo not shown) [Example 10]	63.1
CCCCCC[C@H](C(=O)N1C[C@@H](Oc2ccc(OCC3CC3)cc2)C[C@H]1C(=O)O)n1cnc(NC(=O)c2ccccc2S(=O)(=O)O)c1 [Example 55]	0.398
